Tested on: E. faecalis (clinical pathogenic strain)
Experiment: MIC determination in 96-well plates
Assay type: cell-based, Enterococcus faecalis
Settings: 96-well plate, MHB broth, 5.0 × 10^5 CFU mL^−1, 37 °C, 24 h, OD600; quantified as eight-fold dehydrated molecules; n=3
From the text: The CFPS system is for quick screening of potential antimicrobial lanthipeptides, and we then purified enough compounds of the screened nisin analogs for structure identification and activity assays. […] We treated the novel lanthipeptides with the thiol‐alkylating reagent N‐ethylmaleimide (NEM) to sequester any noncyclic Cys residues, and evaluated ring topology using LC‐MS (Figure S7, Supporting Information). […]
endpoint label: MIC E. faecalis (µg/mL)
Your answer should be a plain number; it is taken to be in µg/mL.

IT SVSLC TPGCKTGALMGCNMKTAS CGCHVHVSK (bicyclic or more) [RL6, novel lanthipeptide, nisin analog, core peptide from Leuconostoc gelidum] on E. faecalis (clinical pathogenic strain) gives MIC E. faecalis = 250

====

System: E. faecalis (clinical pathogenic strain)
Experiment: MIC determination in 96-well plates
Assay type: cell-based, Enterococcus faecalis
Conditions: 96-well plate, MHB broth, 5.0 × 10^5 CFU mL^−1, 37 °C, 24 h, OD600; quantified as eight-fold dehydrated molecules; n=3
Source text: The CFPS system is for quick screening of potential antimicrobial lanthipeptides, and we then purified enough compounds of the screened nisin analogs for structure identification and activity assays. […] We treated the novel lanthipeptides with the thiol‐alkylating reagent N‐ethylmaleimide (NEM) to sequester any noncyclic Cys residues, and evaluated ring topology using LC‐MS (Figure S7, Supporting Information). […]
Non-standard residues stand in square brackets, D forms with d. No end group written: not given here. Dhb = C/C=C(\N)C(=O)O; Dha = C=C(N)C(=O)O
// reported MIC E. faecalis per item
Your answer should be a plain number; it is taken to be in µg/mL.

Below are worked cases with known answers.
- IT SKSLC TPGCKTGALMT CPIKTAT CGCHFGN (bicyclic or more) [RL13, novel lanthipeptide, nisin analog, core peptide from Streptococcus equinus]: 250
- Nisin Z: type I lanthipeptide nisin Z, synthesized by CFPS or from mLanA expressed in E. coli (I[Dhb]SI[Dha]LCTPGCKTGALMGCNMKTATCNCSIHV[Dha]K; cysteine pairing not given here; also: lanthipeptide thioether crosslinks and dehydrated residues, positions not given here; UniProt P29559 24-57, looked up) [reference compound]: 250
- IT SKSLC TPGCVTGVLMGCALKTIT CNC SVGIGKK (bicyclic or more) [RL14, novel lanthipeptide, nisin analog, core peptide from Enterococcus rotai/Enterococcus moraviensis]: 62.5
- VT SKSLC TPGCKTGILQT CAIKSAT CGC SIHIGK (bicyclic or more) [RL8, novel lanthipeptide, nisin analog, core peptide from Bacillus cereus]: 250

Attention now turns to another entry.
Nisin A: commercialized nisin, class I lanthipeptide, food preservative (I[Dhb]SI[Dha]LCTPGCKTGALMGCNMKTATCHCSIHV[Dha]K; cysteine pairing not given here; also: lanthipeptide thioether crosslinks and dehydrated residues, positions not given here; UniProt P13068 24-57, looked up) [reference compound] on E. faecalis (clinical pathogenic strain) gives MIC E. faecalis = 250

====

Tested on: MRSA (clinical pathogenic strain)
Assay: MIC determination in 96-well plates
Format: cell-based, methicillin‐resistant S. aureus
Conditions: value in parentheses; 96-well plate, MHB broth, 5.0 × 10^5 CFU mL^−1, 37 °C, 24 h, OD600; quantified as eight-fold dehydrated molecules; n=3
Non-standard residues stand in square brackets, D forms with d. No end group written: not given here. Dhb = C/C=C(\N)C(=O)O; Dha = C=C(N)C(=O)O
endpoint label: MIC MRSA (µM)
Your answer should be a plain number; it is taken to be in µM.

Below are worked cases with known answers.
* Nisin Z: type I lanthipeptide nisin Z, synthesized by CFPS or from mLanA expressed in E. coli (I[Dhb]SI[Dha]LCTPGCKTGALMGCNMKTATCNCSIHV[Dha]K; cysteine pairing not given here; also: lanthipeptide thioether crosslinks and dehydrated residues, positions not given here; UniProt P29559 24-57, looked up) [reference compound] | 37.52
* IT SKSLC TPGCVTGVLMGCALKTIT CNC SVGIGKK (bicyclic or more) [RL14, novel lanthipeptide, nisin analog, core peptide from Enterococcus rotai/Enterococcus moraviensis] | 74.75

Attention now turns to another entry.
Nisin A: commercialized nisin, class I lanthipeptide, food preservative (I[Dhb]SI[Dha]LCTPGCKTGALMGCNMKTATCHCSIHV[Dha]K; cysteine pairing not given here; also: lanthipeptide thioether crosslinks and dehydrated residues, positions not given here; UniProt P13068 24-57, looked up) [reference compound] on MRSA (clinical pathogenic strain) gives MIC MRSA = 37.27

====

Test system: MRSA (clinical pathogenic strain)
Assay: MIC determination in 96-well plates
Type: cell-based, methicillin‐resistant S. aureus
Conditions: value in parentheses; 96-well plate, MHB broth, 5.0 × 10^5 CFU mL^−1, 37 °C, 24 h, OD600; quantified as eight-fold dehydrated molecules; n=3
endpoint label: MIC MRSA

Below are worked cases with known answers.
* IT SVSLC TPGCKTGALMGCNMKTAS CGCHVHVSK (bicyclic or more) [RL6, novel lanthipeptide, nisin analog, core peptide from Leuconostoc gelidum] | > 76.17 µM
* IT SKSLC TPGCKTGALMT CPIKTAT CGCHFGN (bicyclic or more) [RL13, novel lanthipeptide, nisin analog, core peptide from Streptococcus equinus] | > 80.8 µM

Attention now turns to another entry.
Query VT SKSLC TPGCKTGILQT CAIKSAT CGC SIHIGK (bicyclic or more) [RL8, novel lanthipeptide, nisin analog, core peptide from Bacillus cereus] yields MIC MRSA of > 76.52 µM
